Values from PubChem BioAssay (EPA / NIEHS)

# protocol-summary: ATG_NRF2_ARE_CIS: Attagene CIS-FACTORIAL HepG2 Assay for human Nuclear Factor Erythroid 2 Related Factor 2 (NFR2) response to Antioxidant Response Elements (ARE) (AID 2282992)
# measurement-context: HepG2 Attagene ARE/NRF2 reporter, transcription factor activity; actives raise or lower the signal
# Protocol: ATG_CIS is a cell-based, multiplexed-readout assay that uses HepG2, a human liver cell line, with measurements taken at 24 hours after chemical dosing in a 24-well plate.ATG_NRF2_ARE_CIS is one of 52 assay component(s) measured or calculated from the ATG_CIS assay. […] This assay endpoint, ATG_NRF2_ARE_CIS, was analyzed with bidirectional fitting relative to DMSO as the negative control and baseline of activity. […]
The source made the active and inactive calls. Rule for the calls: active = hit-call score of the fitted dose curve at least 0.9, where 1 is the maximum; inactive = score below 0.9.
Classes used: 1 (yes) for active, 0 (no) for inactive

[[record]]
cpd_smiles = "Cc1cn([C@H]2C[C@H](N=[N+]=[N-])[C@@H](CO)O2)c(=O)[nH]c1=O"
label_value = "0 (no)"

[[record]]
cpd_smiles = "O=c1ccc2ccccc2o1"
label_value = "0 (no)"

[[record]]
cpd_smiles = "c1ccc(C[n+]2cccc3ccccc32)cc1"
label_value = "1 (yes)"

[[record]]
cpd_smiles = "Cc1ccc2oc(CN(Cc3ccccc3)C(=O)Nc3c(F)cc(F)cc3F)c(-c3ccc(Cl)cc3)c2c1"
label_value = "0 (no)"

[[record]]
cpd_smiles = "Cc1cc(F)ccc1-c1cc(N2CC[C@@H](O)[C@H]2CO)ncc1N(C)C(=O)C(C)(C)c1cc(C(F)(F)F)cc(C(F)(F)F)c1"
label_value = "0 (no)"

[[record]]
cpd_smiles = "O=C=NCCCCCCN=C=O"
label_value = "0 (no)"

[[record]]
cpd_smiles = "CCCCCCCCN(C)CCCCCCCC"
label_value = "0 (no)"

[[record]]
cpd_smiles = "CC(C)(C)c1csc(-c2cc3cc(OCc4ccccc4CC(=O)O)ccc3o2)n1"
label_value = "1 (yes)"

[[record]]
cpd_smiles = "Cc1ncc(CO)c(CO)c1O"
label_value = "0 (no)"

[[record]]
cpd_smiles = "CN(C[C@@H](CC[N+]12CCC(C3CCCCC3)(CC1)CC2)c1ccc(Cl)c(Cl)c1)C(=O)c1cc(C(F)(F)F)cc(C(F)(F)F)c1"
label_value = "0 (no)"

[[record]]
cpd_smiles = "CCCCCCCCCC(=O)O"
label_value = "0 (no)"

[[record]]
cpd_smiles = "O=c1[nH]sc2ccccc12"
label_value = "1 (yes)"

[[record]]
cpd_smiles = "CCO[Si](CCCNC(N)=O)(OCC)OCC"
label_value = "0 (no)"

[[record]]
cpd_smiles = "CCCCCCCCCCCO"
label_value = "0 (no)"

[[record]]
cpd_smiles = "COc1cc(C(=O)NC2CCN(C)CC2)ccc1Nc1ncc2c(n1)N(C1CCCC1)CC(F)(F)C(=O)N2C"
label_value = "0 (no)"

[[record]]
cpd_smiles = "CC(C)(O)c1ccc(CNC(=O)c2cccnc2Oc2ccc3nonc3c2)cc1"
label_value = "0 (no)"

[[record]]
cpd_smiles = "Cc1oc2c(NC(=O)c3c(Cl)cccc3Cl)cccc2c1C(C)(C)O"
label_value = "0 (no)"

[[record]]
cpd_smiles = "C[C@]12CC[C@@H]3c4ccc(O)cc4CC[C@H]3[C@@H]1CCC2=O"
label_value = "0 (no)"

[[record]]
cpd_smiles = "NC(=O)c1nc(-c2cccc(-c3cc(F)ccc3OCC(F)(F)C(F)(F)F)c2)n[nH]1"
label_value = "1 (yes)"

[[record]]
cpd_smiles = "CC(C)(C)c1cc(/C=C2\\SC(N)=NC2=O)cc(C(C)(C)C)c1O"
label_value = "1 (yes)"

[[record]]
cpd_smiles = "CCCCCCCCCCCCO"
label_value = "0 (no)"

[[record]]
cpd_smiles = "CC1=CC(=O)/C(=C(/C)O)C(=O)O1"
label_value = "0 (no)"

